# Lookup of reported MFI of CD27+ CHO cells keyed by entry
Assayed System: T1, CD27 on CHO cells (UniProt P26842 20-260, limits assumed)
T1 construct: whole, on cells; also called CD27+ CHO cells; irrelevant antigen (CD27)
T1 sequence (P26842 20-260 limits assumed): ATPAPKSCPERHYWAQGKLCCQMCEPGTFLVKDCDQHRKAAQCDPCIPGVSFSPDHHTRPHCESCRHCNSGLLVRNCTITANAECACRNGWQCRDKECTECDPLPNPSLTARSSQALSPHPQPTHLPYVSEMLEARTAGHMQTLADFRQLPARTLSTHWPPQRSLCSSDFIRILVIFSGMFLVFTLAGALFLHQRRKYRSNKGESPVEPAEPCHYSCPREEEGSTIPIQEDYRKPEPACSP
Protocol: flow cytometry, 10 µg/mL mAb, geometric MFI
Answer with a bare number; do not write a unit.

Query: Return the recorded MFI of CD27+ CHO cells value; entry: antibody A18 (L18H18) (antibody, V domains shown, also called aCTLA-4.11) VH: QVQLVESGGGVVQPGRSLRLSCAASGFTFSSYGMHWVRQAPGKGLEWVAVIWYDGSNKFYADSVKGRFTISSDNSKNTLYLQMNSLRAEDTAVYYCARGGHLGSFDYWGQGTLVTVSS VL: EIVLTQSPGTLSLSPGERATLSCRASQSVSYLAWYQQKPGQAPRLLIYGASSRATGIPDRFSGSGSGTDFTLTISRLEPEDFAVYYCQQYGSSPWTFGQGTKVEIK
Result: 14.8

These measurements were taken from patent US20230265192A1.
